# Target Desc: COX-2 (Homo sapiens, UniProt P35354)
# Sequence (P35354 18-604): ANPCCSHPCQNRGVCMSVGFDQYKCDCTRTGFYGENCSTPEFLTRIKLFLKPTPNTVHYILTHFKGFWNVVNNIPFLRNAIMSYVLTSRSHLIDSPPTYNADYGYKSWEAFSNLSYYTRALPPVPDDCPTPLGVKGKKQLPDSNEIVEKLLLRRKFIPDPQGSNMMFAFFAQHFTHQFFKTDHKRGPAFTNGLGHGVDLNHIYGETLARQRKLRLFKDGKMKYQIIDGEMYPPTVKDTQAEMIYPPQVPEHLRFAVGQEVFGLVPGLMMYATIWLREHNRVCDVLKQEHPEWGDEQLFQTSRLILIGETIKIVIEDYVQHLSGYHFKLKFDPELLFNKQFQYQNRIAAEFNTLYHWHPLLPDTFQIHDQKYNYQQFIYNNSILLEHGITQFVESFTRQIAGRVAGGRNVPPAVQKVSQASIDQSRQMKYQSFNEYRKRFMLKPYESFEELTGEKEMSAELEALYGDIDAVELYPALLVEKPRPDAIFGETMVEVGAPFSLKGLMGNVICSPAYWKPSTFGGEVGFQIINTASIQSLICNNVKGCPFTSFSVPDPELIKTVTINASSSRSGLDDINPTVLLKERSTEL
Test Readout: pIC50
Quick note: pIC50 means taking -log10 of the concentration in moles per liter.

Some entries whose results are on file:
O=C(O)c1cc(O)c(O)c(O)c1 [Gallic acid] :: 2.82
C[C@@]12C[C@@]3(O)O[C@@H](O1)[C@]1(COC(=O)c4ccccc4)[C@H]3C[C@@]12O[C@@H]1O[C@H](COC(=O)c2cc(O)c(O)c(O)c2)[C@@H](O)[C@H](O)[C@H]1O [Galloylpaeoniflorin] :: 5.18

Shift focus to the following entry.
Query: Answer with the recorded pIC50 for the molecule listed here: COC(=O)c1cc(O)c(O)c(O)c1 [Methyl gallate]
Response: 4.92
